- Experimental system: angiotensin-converting enzyme (ACE)
Observation type: pIC50
Quick note: pIC50 means taking -log10 of the concentration in moles per liter.

pIC50 in this record for CC1(C)C2CCC1(C)C(OC(=O)[C@@H]1CCCN1C(=O)[C@H](Cc1ccccc1)NC(=O)[C@H](O)Cc1ccc(O)c(O)c1)C2 (stereo partly drawn) [Compound 221S-8a] : 7.19

pIC50 in this record for CC1(C)C2CCC1(C)C(OC(=O)[C@@H]1CCCN1C(=O)[C@@H]1CCCN1C(=O)[C@H](O)Cc1ccc(O)c(O)c1)C2 (stereo in doubt) [Compound 221S-6a] : 7.37

pIC50 in this record for CC(C)C[C@H](NC(=O)[C@H](O)Cc1ccc(O)c(O)c1)C(=O)N1CCC[C@H]1C(=O)OC1CC2CCC1(C)C2(C)C (stereo partly drawn) [Compound 221S-3a] : 7.57

Hey, just so you know, these numbers are from patent US11358985B2.
